- Tested on: PXR homodimer (NR concentration 270 nM)
- Test Summary: PBM binding z-score (relative to random genomic background probes); higher = stronger binding; sequences stand for … in GC…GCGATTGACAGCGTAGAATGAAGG
I'd be grateful if you could share measured PBM binding z-score for these entries.
Please reply with the number alone, leaving off any unit.

Query: Look up PBM binding z-score for this sequence: CAAACTAGGTCACGAAAGGTTAAAGTCGAATGAC
Response: 0.579

Query: Need PBM binding z-score of CCTGCTAGGGCATGGTCAGCTAATCTACAGTATG , thanks.
Response: -0.686

Query: So what does the record say about PBM binding z-score for CCTTACGGGTCAATCCAGGTTATAGCATCGGAGT ?
Response: 0.705

Query: Given the sequence CCTACTGGGCCAAGGGCATTGATCAGTCAAAGCA , what is its reported PBM binding z-score?
Response: -0.173

Query: I would be grateful if you could share the reported PBM binding z-score for TGTAGTTGGTCACGGAGGTCACACACGACGGGTA .
Response: 0.948

Query: Item GCTAGTTGCTCAGTAAAAGGTCACACACCGGTCG has what recorded PBM binding z-score?
Response: 0.686

Query: Requested field: PBM binding z-score. Item: ACTCGGAGGACAAAGGTCAGCGCTACGCCAGTGA
Response: 0.485

Query: GET /values?readout=PBM binding z-score&item= CCTACTCGGCCACGAAAGGTCATTGATTCAGTGA
Response: 1.83

Query: Bench note: what PBM binding z-score did TCTTGAAGATCAAGCAGGTTAAGAAAGCCTGAGT show?
Response: -0.168

Query: Given the entry AATCAAAGTTCATCTAGGTAACGTAAGATATGCT , report its measured PBM binding z-score.
Response: 7.06

Query: Endpoint output: PBM binding z-score of CACACAGGGTCAGCTAGGCCAGAGTAGGGACGGC . Value?
Response: 0.13
